Assay: Cytotoxicity against human THP-1 cells assessed as cellular proliferation inhibition measured after 48 hrs by MTT assay
Type: toxicity, cell-based
Can you tell me IC50 at 48 h for the items I'm about to list?

Consider the worked cases shown below.
| given-smiles | IC50 at 48 h |
| --- | --- |
| CCC(=O)Nc1ccc(Cn2c(SCC3CCCCC3)nc3ccncc32)cc1 | > 100 µM |
| COCCNC(=O)c1ccc(Cn2c(SCC3CCCCC3)nc3ccncc32)cc1 | 96.3 µM |
| O=C(c1ccc(Cn2c(SCC3CCCCC3)nc3ccncc32)cc1)N1CCOCC1 | > 100 µM |
| CCOc1ccc(CCNC(=O)Cn2nc(-c3ccc(C)c(S(=O)(=O)N4CCCCC4)c3)c3ccccc3c2=O)cc1OCC | > 100 µM |
| COCCCNC(=O)c1ccc(Cn2c(SCc3ccc(Cl)cc3)nc3ccncc32)cc1 | 23 µM |
| CCOCCCNC(=O)c1ccc(CSc2nc3ccncc3n2Cc2cccc(F)c2)cc1 | > 100 µM |
| CCNC(=O)c1ccc(Cn2c(SCC3CCCCC3)nc3ccncc32)cc1 | > 100 µM |
| CCCNC(=O)c1ccc(Cn2c(SCC3CCCCC3)nc3ccncc32)cc1 | > 100 µM |

Could you report IC50 at 48 h for every entry in the following list?
1. COCCCNC(=O)c1ccc(Cn2c(SCc3ccc(OC)cc3)nc3ccncc32)cc1
2. NC(=O)c1ccc(Cn2c(SCC3CCCCC3)nc3ccncc32)cc1

1: > 100 µM; 2: > 100 µM
